- target_or_system: human lysophosphatidic acid receptor 1 (LPAR1) (Homo sapiens)
- Sequence (Q92633 whole entry): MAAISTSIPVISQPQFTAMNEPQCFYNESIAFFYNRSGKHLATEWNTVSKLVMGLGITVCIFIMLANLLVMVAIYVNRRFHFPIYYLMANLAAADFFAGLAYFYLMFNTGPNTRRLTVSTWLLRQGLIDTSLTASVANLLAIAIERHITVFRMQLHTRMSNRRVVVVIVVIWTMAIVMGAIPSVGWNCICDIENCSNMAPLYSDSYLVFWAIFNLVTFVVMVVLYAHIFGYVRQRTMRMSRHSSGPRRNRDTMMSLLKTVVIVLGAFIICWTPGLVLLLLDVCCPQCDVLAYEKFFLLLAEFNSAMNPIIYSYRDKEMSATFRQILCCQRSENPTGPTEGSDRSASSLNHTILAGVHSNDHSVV
- test_details: FLIPR test of antagonist properties: inhibition of LPA-induced intracellular calcium elevation in CHO-K1 cells expressing hLPAR1
- condition_context: FLIPR calcium assay, CHO-K1/LPA1R cells, LPA at EC80
Would you kindly list pIC50 for each of these compounds?
When answering, recall that pIC50 equals minus log10 of the concentration in mol/L, and write that number alone.

# compound Cc1nc(-c2nnn(C)c2COc2nccc(C(F)(F)F)n2)ccc1OC1CC2CCC(C(=O)O)C2C1 (single isomer, unassigned) [Compound 1-P1] ; its pIC50 = 7.88

# compound Cc1nc(-c2nnn(C)c2COc2nccc(C(F)(F)F)n2)ccc1OC1CC2CCC(C(=O)O)C2C1 (stereo not drawn) [Compound 1] ; its pIC50 = 7.78

# compound CCOCc1ccnc(OCc2c(-c3ccc(OC4CC5CCC(C(=O)O)C5C4)c(C)n3)nnn2C)n1 (single isomer, unassigned) [Compound 13-P1] ; its pIC50 = 5.96

# compound Cc1nc(-c2nnn(C)c2COc2nccc(C(F)F)n2)ccc1OC1CC2CCC(F)(C(=O)O)C2C1 (stereo not drawn) ; its pIC50 = 7.40

# compound Cc1nc(-c2nnn(C)c2COc2noc(C3CC3)n2)ccc1OC1CC2CCC(C(=O)O)C2C1 (single isomer, unassigned) [Compound 2-P1] ; its pIC50 = 7.59

# compound CCOCc1ccnc(OCc2c(-c3ccc(OC4CC5CCC(C(=O)O)C5C4)c(C)n3)nnn2C)n1 (single isomer, unassigned) [Compound 13-P2] ; its pIC50 = 7.55

# compound COCc1ccnc(OCc2c(-c3ccc(OC4CC5CCC(C)(C(=O)O)C5C4)c(C)n3)nnn2C)n1 (single isomer, unassigned) [Compound 14-P1] ; its pIC50 = 7.38

# compound COc1ccnc(OCc2c(-c3ccc(OC4CC5CCC(C(=O)O)C5C4)c(C)n3)nnn2C)n1 (single isomer, unassigned) [Compound 11-P2] ; its pIC50 = 7.30

# compound COCc1ccnc(OCc2c(-c3ccc(OC4CC5CCC(F)(C(=O)O)C5C4)c(C)n3)nnn2C)n1 (single isomer, unassigned) [Compound 5-P1] ; its pIC50 = 7.81

# compound Cc1nc(-c2nnn(C)c2COc2nccc(O[C@@H]3CCOC3)n2)ccc1OC1CC2CCC(C(=O)O)C2C1 (single isomer, unassigned) [Compound 8-P1] ; its pIC50 = 7.55

# compound CCc1cc(OCc2c(-c3ccc(OC4CC5CCC(C(=O)O)C5C4)c(C)n3)nnn2C)ncn1 (single isomer, unassigned) [Compound 4-P2] ; its pIC50 = 7.45

# compound Cc1nc(-c2nnn(C)c2COc2nccc(C(F)(F)F)n2)ccc1O[C@H]1CCC[C@H](C(=O)O)C1 ; its pIC50 = 7.12

# compound Cc1nc(-c2nnn(C)c2COc2nccc(O[C@H]3CCOC3)n2)ccc1OC1CC2CCC(C(=O)O)C2C1 (single isomer, unassigned) [Compound 9-P1] ; its pIC50 = 7.48
